pIC50: −log10 of the molar value.
Reported pIC50 values, Voltage-gated inwardly rectifying potassium channel KCNH2 (Homo sapiens, UniProt Q12809).
Quantity name: pIC50

- O=c1ccc2ncc(F)c3c2n1CC3C[C@H]1OC[C@H](NCc2ccc3c(c2)OCCO3)CO1 (stereo partly drawn): 4.00
- O=c1ccc2ccc(F)c3c2n1CC3C[C@H]1OC[C@H](NCc2ccc3c(c2)OCCO3)CO1 (stereo partly drawn): 4.46
- O=C1CSc2ccc(CN[C@H]3CO[C@H](CC4Cn5c(=O)ccc6ncc(F)c4c65)OC3)nc2N1 (stereo partly drawn): 4.26
- O=C1COc2ccc(CN[C@H]3CO[C@H](CC4Cn5c(=O)ccc6ccc(F)c4c65)OC3)nc2N1 (stereo partly drawn): 4.52

Origin of the recorded values: ChEMBL document CHEMBL5131562
